# method_notes: osmotic lysis modulators in infected erythrocytes, primary screen, PSAC antagonist project, cell-based, P. falciparum Indochina, OD700, 3 h (AID 1156)
# reported_conditions: higher = more signal, called active from +8 up or from −8 down
Threshold check on z-score: at or above 0.1 gives met, strictly below gives not met.

{"compound": "CCN1C(C)=C(C(=O)OC)[C@@H](c2ccccc2)N2C(=O)[C@](O)(C(=O)OC)[C@@H](c3ccccc3)C(C(C)=O)=C12", "label_value": "met"}
{"compound": "CO[C@@H]1COC(=O)[C@H](COCc2ccccc2)NC(=O)CC=C[C@@H](C)[C@H](OC)COC(=O)[C@H](COCc2ccccc2)NC(=O)CC=C[C@H]1C", "label_value": "not met"}
{"compound": "O=C1O[C@@H](c2ccccc2)[C@@H](c2ccccc2)N2[C@@H](c3ccc(O)cc3)[C@]3(C(=O)Nc4ccccc43)[C@@H](C(=O)N3CCN(c4ncccn4)CC3)[C@H]12", "label_value": "met"}
{"compound": "CO[C@H]1COC(=O)[C@@H](C)NC(=O)CC=C[C@@H](C)[C@H](OC)COC(=O)CC=C[C@@H]1C", "label_value": "met"}
{"compound": "O=C1C[C@@](C(=O)NCCN2CCOCC2)(c2ccc([N+](=O)[O-])cc2)[C@@H](c2ccc(CO)cc2)N1C1CCCCC1", "label_value": "met"}
{"compound": "CCOC(=O)C1=CC[C@@H](c2ccccc2)N(S(=O)(=O)c2ccc(C)cc2)[C@H]1C", "label_value": "not met"}
{"compound": "C[C@@H]1NC(=O)[C@H](Cc2ccccc2)NC(=O)[C@@]23C(=O)N[C@@H](Cc4ccccc4)C2[C@H](C)[C@@]2(C)O[C@H]2C3/C=C/C/C=C\\CNC1=O (some centres undefined)", "label_value": "met"}
{"compound": "O=C/C=C/c1ccc(/C=C/c2ccccc2)cc1", "label_value": "met"}
{"compound": "O=C1O[C@@H](c2ccccc2)[C@@H](c2ccccc2)N2[C@@H](c3ccc(O)cc3)[C@]3(C(=O)Nc4ccc(C#CC5(O)CCCCCC5)cc43)[C@@H](C(=O)Nc3nc4ccccc4s3)[C@H]12", "label_value": "met"}
{"compound": "O=C(N1CCCCC1)[C@@]1(CCS(=O)(=O)c2ccccc2)N=C(c2ccc(OCCCO)cc2)O[C@H]1c1ccccc1", "label_value": "met"}
{"compound": "C[C@]1(C(=O)NCc2ccccc2)c2ccccc2C(=O)N(Cc2cc(C(F)(F)F)cc(C(F)(F)F)c2)[C@H]1c1ccc(CO)cc1", "label_value": "met"}
{"compound": "O=C1O[C@H](c2ccccc2)[C@H](c2ccccc2)N2[C@H]1[C@@H](C(=O)Nc1nc3ccccc3s1)[C@]1(C(=O)Nc3ccc(C#CC4(O)CCCCCC4)cc31)[C@H]2c1ccc(O)cc1", "label_value": "met"}
{"compound": "Cc1ccc(S[C@]2(C(=O)NCCCN(C)C)CC(=O)N(Cc3ccccc3)[C@@H]2c2ccc(CO)cc2I)cc1", "label_value": "met"}
{"compound": "C=CCC(OC(C)=O)[C@@H]1[C@@H](N(Cc2cccc3ccccc23)C(=O)Cc2ccc(F)cc2)c2cc(OCCCO)ccc2N1C(=O)Cc1ccc2ccccc2c1 (some centres undefined)", "label_value": "not met"}
{"compound": "COc1cccc([C@H]2N[C@H](C(=O)O)CC[C@@H]2C)c1", "label_value": "met"}
{"compound": "C=C(CCCC)/C(=C/C[C@@H](OC(=O)c1ccncc1)c1cccc(OCCO)c1)c1cc(C(=O)OC)ccc1OC", "label_value": "met"}
{"compound": "O=C/C=C/c1ccccc1Cl", "label_value": "not met"}
{"compound": "COc1ccc(C(O)C2C=CC3C(=O)N(C)C(=O)C3N2N2CCCCC2)cc1OCc1ccccc1 (centres undefined)", "label_value": "met"}
{"compound": "Cc1ccc(N2C(=O)c3ccccc3[C@](C)(C(=O)O)[C@@H]2c2ccc(CO)cc2)nc1", "label_value": "not met"}
{"compound": "O=C1C2C=CC(C(O)C(c3ccccc3)c3ccccc3)N(Nc3ccc([N+](=O)[O-])cc3)C2C(=O)N1c1ccccc1 (centres undefined)", "label_value": "not met"}
{"compound": "CCCN1C(=O)[C@@]2(CCS(=O)(=O)c3ccccc3)N=C(c3ccc(OCCCO)cc3)O[C@H]2c2ccccc21", "label_value": "met"}
{"compound": "C[C@@H]1C=CCC(=O)OC[C@H]2O[C@@H](C=C[C@@H]2O)[C@H](C)C=CCC(=O)OC[C@H]2O[C@H]1C=C[C@@H]2O", "label_value": "not met"}
{"compound": "O=C1OCC=C[C@H]2OC34C=CCN(Cc5ccccc5)C(=O)[C@H]3N(CCCCCO)C(=O)[C@@H]4[C@@H]12 (some centres undefined)", "label_value": "not met"}
{"compound": "COCC(=C=CC[C@H](O)c1ccc(OCCO)cc1)C[C@H](O)c1ccccn1", "label_value": "met"}
{"compound": "Cc1ccc(N2C(=O)c3ccccc3[C@@H](C(=O)NCc3ccccc3)[C@@H]2c2ccc(CO)cc2)nc1", "label_value": "not met"}
{"compound": "COCCOC(=O)N1C(=O)[C@@]2(c3cc(C#CCNC(N)=O)ccc31)[C@H](c1ccccc1OCCO)N1[C@H](c3ccccc3)[C@H](c3ccccc3)OC(=O)[C@H]1[C@@H]2C(=O)NC[C@H](O)c1ccccc1", "label_value": "met"}
{"compound": "COc1cccc([C@@H]2[C@@H](C)CC[C@H]3C(=O)N4[C@H](c5cccc(OC)c5)[C@@H](C)CC[C@H]4C(=O)N23)c1", "label_value": "not met"}
{"compound": "COCCOC(=O)N1C(=O)[C@@]2(c3cc(C#CCCO)ccc31)[C@H](c1ccc(O)cc1)N1[C@H](c3ccccc3)[C@H](c3ccccc3)OC(=O)[C@H]1[C@@H]2C(=O)Nc1nc2ccccc2s1", "label_value": "met"}
{"compound": "C=C(C)[C@@H]1CC=C(C(O)C2C=CC3C(=O)NC(=O)C3N2Nc2ccccn2)CC1 (some centres undefined)", "label_value": "not met"}

Recorded values, source PubChem BioAssay.
